Test system: MCF7 cells
Experiment: Transfection of MCF7 cell line, mRNA vectors
Format: cell-based
Settings: 50 ng EGFP mRNA per well
For each record, write down the corresponding Absolute mRNA transfection efficiency in MCF7 cells.
Numbers only; they are read as %.

Prompt: Name the recorded Absolute mRNA transfection efficiency in MCF7 cells for CCCCCCCCCCCSc1nc(NCCCCCCC)nc(NCC2CCN(C)CC2)n1 [Compound S11N7D10] .
Completion: 9.0

Prompt: Quick one: CCCCCCCCCCCSc1nc(NCCCCCCCCC)nc(NCCCN2CCN(C)CC2)n1 [Compound S11N9D9]
Completion: 27.3

Prompt: What about CCCCCCCCCCCCCCCSc1nc(NCCCN2CCOCC2)nc(SCCCCCCCCC)n1 [Compound S9S15D8] ?
Completion: 13.5

Prompt: And the next one, CCCCCCCCCCCSc1nc(NCCCN2CCN(C)CC2)nc(SCCCCCCC)n1 [Compound S7S11D9] ?
Completion: 3.6

====

System: HEK293 cells
Test: Preliminary screening as mRNA vectors, EGFP mRNA transfection of HEK293 cells
Format: cell-based
Conditions: EGFP mRNA 50 ng per well, 96-well plates; percentage of GFP fluorescent cells relative to total number of cells (Hoechst)
Please mark Yes if the recorded Absolute mRNA transfection efficiency in HEK293 cells is equal to or greater than 10%, and No if it falls below.

Prompt: hey, is Absolute mRNA transfection efficiency in HEK293 cells for this one >= 10%? CCCCCCCCCCCCCCCCNc1nc(NCCN2CCCC2)nc(SCCCCCC)n1 [Compound D3S6N16]
Completion: Yes

Prompt: Another molecule to check: CCCCCCCCCCCSc1nc(NCCCCCCC)nc(NCCN2CCOCC2)n1 [Compound D2S11N7]
Completion: No

Prompt: Please do the same for CCCCCCCCCCCCCCCCCCSc1nc(NCCCCCCCCCCCCCCC)nc(NCCN(CC)CC)n1 [Compound D7S18N15] as well.
Completion: No

Prompt: Next molecule up: CCCCCCCCCCCCCCCSc1nc(NCCCN2CCOCC2)nc(N(CCCCCCCCCCCC)CCCCCCCCCCCC)n1 [D8S15^2N12]
Completion: No

Prompt: Subsequent entry: CCCCCCCCCCCCCCCCCCNc1nc(NCCCN(C)C)nc(SCCCCCCCCCCCC)n1 [Compound D6S12N18]
Completion: No

Prompt: Another molecule to look at: CCCCCCCCCCCCCCCCCCNc1nc(NCCN(CC)CC)nc(SCCCCCCCCCC)n1 [Compound D7S10N18]
Completion: Yes

Prompt: CCCCCCCCCCCCSc1nc(NCCN2CCCC2)nc(SCCCCCC)n1 [Compound D3S6S12] ?
Completion: No

Prompt: Now try CCCCCCCCCCCCCCSc1nc(NCCN2CCOCC2)nc(SCCCCCCC)n1 [Compound D2S7S14] .
Completion: Yes

Prompt: What do we get for CCCCCCCCCCCSc1nc(NCCCCCC)nc(NCCN(CC)CC)n1 [Compound D7S11N6] ?
Completion: No

Prompt: Note, next up: CCCCCCCCSc1nc(NCCN2CCN(C)CC2)nc(SCCCCCCC)n1 [Compound D5S7S8]
Completion: Yes

Prompt: And what about the molecule CCCCCCCCCCCCCNc1nc(NCCN2CCN(C)CC2)nc(SCCCCCCCCCCC)n1 [Compound D5S11N13] ?
Completion: Yes

Prompt: Note, next up: CCCCCCNc1nc(NCCN(C)C)nc(SCCCCCC)n1 [Compound D1S6N6]
Completion: No

Prompt: Now consider CCCCCCCCCCCCCCCCCCNc1nc(NCCN2CCCC2)nc(SCCCCCCCCCCCC)n1 [Compound D3S12N18] and answer again.
Completion: No

Prompt: Can you check CCCCCCCCCCCCCCCCNc1nc(NCCN(C)C)nc(SCCCCCCCCCCCCCCC)n1 [Compound D1S15N16] next?
Completion: No

Prompt: Now this one: CCCCCCCCCCCCCCCNc1nc(NCCN(CC)CC)nc(SCCCCCCC)n1 [Compound D7S7N15]
Completion: Yes

Prompt: Queued: CCCCCCCCCCCCCCCCSc1nc(NCCCN2CCN(C)CC2)nc(SCCCCCC)n1 [Compound D9S6S16]
Completion: Yes

Prompt: Also CCCCCCCCCCCCCCSc1nc(NCCCN(C)C)nc(SCCCCCC)n1 [Compound D6S6S14] ?
Completion: Yes
